systemUnderTest: T1, human IL-36α(R12), truncated (human, UniProt Q9UHA7 6-158)
T1 construct: Untagged after removal of the His-SUMO tag; also called hIL-36alpha
T1 chain: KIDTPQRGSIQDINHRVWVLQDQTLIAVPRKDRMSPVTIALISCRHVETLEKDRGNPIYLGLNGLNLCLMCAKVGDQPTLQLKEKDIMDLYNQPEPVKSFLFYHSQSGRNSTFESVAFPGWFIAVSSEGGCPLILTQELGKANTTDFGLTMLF
measurementNotes: SPR, Biacore, 1:1 Langmuir fit; heads of c3 and c4 printed swapped
Quick reference: kon of the listed items.
metric: kon (M⁻¹ s⁻¹)

>>> reportedresult("144L249B (antibody, V domains shown, Mouse monoclonal from hybridoma; mouse IgG heavy and lambda light chain; also called mouse antibody 144L249B) VH: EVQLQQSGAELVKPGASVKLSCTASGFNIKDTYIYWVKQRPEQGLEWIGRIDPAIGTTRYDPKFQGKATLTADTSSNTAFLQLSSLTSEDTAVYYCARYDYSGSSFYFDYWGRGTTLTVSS VL: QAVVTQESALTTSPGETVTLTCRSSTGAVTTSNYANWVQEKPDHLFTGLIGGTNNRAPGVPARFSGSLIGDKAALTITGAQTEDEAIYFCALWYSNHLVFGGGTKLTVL")
515000
>>> reportedresult("144D464A LV10re HV10b (antibody, V domains shown, Humanized) VH: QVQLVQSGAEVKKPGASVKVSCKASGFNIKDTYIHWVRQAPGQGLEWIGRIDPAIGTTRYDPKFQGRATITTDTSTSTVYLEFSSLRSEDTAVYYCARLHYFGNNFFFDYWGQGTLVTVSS VL: QAVVTQEPSLTVSPGGTVTLTCRSSSGAVTTSNYANWVQEKPGQLFAGLIGGTNDRAPGVPARFSGSLLGGKAALTLSGAQPEDEAIYFCALWFSNHWVFGGGTKLTVL")
229000
>>> reportedresult("144L249B LV9 HV10c (antibody, V domains shown, Humanized) VH: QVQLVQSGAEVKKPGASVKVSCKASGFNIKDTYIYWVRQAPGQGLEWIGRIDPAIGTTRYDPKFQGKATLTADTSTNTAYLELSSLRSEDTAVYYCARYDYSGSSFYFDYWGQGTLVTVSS VL: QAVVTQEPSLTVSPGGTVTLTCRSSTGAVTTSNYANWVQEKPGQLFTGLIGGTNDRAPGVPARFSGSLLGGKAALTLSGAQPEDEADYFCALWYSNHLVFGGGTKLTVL")
850000
>>> reportedresult("144L249B LV9 HV10b (antibody, V domains shown, Humanized) VH: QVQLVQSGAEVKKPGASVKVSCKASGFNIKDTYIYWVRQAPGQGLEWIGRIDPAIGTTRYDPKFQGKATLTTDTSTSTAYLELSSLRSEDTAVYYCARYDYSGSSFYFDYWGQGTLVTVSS VL: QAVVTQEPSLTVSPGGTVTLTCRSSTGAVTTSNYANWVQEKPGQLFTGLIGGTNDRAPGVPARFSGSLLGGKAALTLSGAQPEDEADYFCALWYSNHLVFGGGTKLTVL")
714000
>>> reportedresult("144D464A LV9are HV10b (antibody, V domains shown, Humanized) VH: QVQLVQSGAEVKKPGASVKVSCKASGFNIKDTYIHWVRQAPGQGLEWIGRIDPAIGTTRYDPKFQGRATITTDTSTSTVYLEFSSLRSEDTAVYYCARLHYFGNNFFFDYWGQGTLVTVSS VL: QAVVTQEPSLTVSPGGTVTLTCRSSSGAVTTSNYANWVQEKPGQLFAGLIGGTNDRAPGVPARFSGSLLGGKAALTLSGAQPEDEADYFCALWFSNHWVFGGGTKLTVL")
212000

This collection of values is drawn from patent US20210380675A1.
